Every entry's value here was drawn from PubChem BioAssay (EPA / NIEHS).

assay.comment: ATG_Sox_CIS: Attagene CIS-FACTORIAL HepG2 Assay for human SRY-box transcription factor (SOX) (AID 2282960)
stated.conditions: HepG2 Attagene cis-factorial SOX reporter, mRNA; actives raise or lower the signal
Experimental: ATG_CIS is a cell-based, multiplexed-readout assay that uses HepG2, a human liver cell line, with measurements taken at 24 hours after chemical dosing in a 24-well plate.ATG_Sox_CIS is one of 52 assay component(s) measured or calculated from the ATG_CIS assay. […] This assay endpoint, ATG_Sox_CIS, was analyzed with bidirectional fitting relative to DMSO as the negative control and baseline of activity. […]
Activity calls are given as the source filed them. How the source made its calls: active means hit-call score of the fitted dose curve at least 0.9, where 1 is the maximum; inactive means score below 0.9.
Answer with one of the outcomes Yes = active, No = inactive

Each compound tested received a call. Report the one for "Fc1ccc(Oc2ccnc3cc(Cl)cc(Cl)c23)cc1" .
No

Each compound tested received a call. Report the one for "CNC(=O)ON=CC(C)(C)SC" .
No

Each compound tested received a call. Report the one for "CCOP(=S)(OCC)SCn1c(=O)oc2cc(Cl)ccc21" .
No

Each compound tested received a call. Report the one for "CCCCOC(=O)c1ccccc1C(=O)OCCCC" .
No

Each compound tested received a call. Report the one for CCOC(=O)CC(SP(=S)(OC)OC)C(=O)OCC (centres undefined) .
No

Each compound tested received a call. Report the one for "COC(=O)N(OC)c1ccccc1COc1ccn(-c2ccc(Cl)cc2)n1" .
No

Each compound tested received a call. Report the one for CC1COC(Cn2cncn2)(c2ccc(Oc3ccc(Cl)cc3)cc2Cl)O1 (centres undefined) .
No

Each compound tested received a call. Report the one for "CS/C(C)=N/OC(=O)N(C)SN(C)C(=O)O/N=C(\C)SC" .
No

Each compound tested received a call. Report the one for "CNC(=S)S" .
No

Each compound tested received a call. Report the one for "O=C(O)COc1nc(Cl)c(Cl)cc1Cl" .
No

Each compound tested received a call. Report the one for "C=CCC1=C(C)[C@@H](OC(=O)[C@@H]2[C@@H](C=C(C)C)C2(C)C)CC1=O" .
No

Each compound tested received a call. Report the one for COP(N)(=O)SC (centres undefined) .
No

Each compound tested received a call. Report the one for "N#Cc1cc(Br)c(O)c(Br)c1" .
No

Each compound tested received a call. Report the one for "COc1nc(NC(C)C)nc(NC(C)C)n1" .
No

Each compound tested received a call. Report the one for "CCc1nn(C)c(C(=O)NCc2ccc(C(C)(C)C)cc2)c1Cl" .
No

Each compound tested received a call. Report the one for "O=C(O)c1nc(Cl)ccc1Cl" .
No

Each compound tested received a call. Report the one for "COc1nc(C)nc(NC(=O)NS(=O)(=O)c2ccccc2Cl)n1" .
No

Each compound tested received a call. Report the one for "CCCN(CCC)c1c([N+](=O)[O-])cc(S(N)(=O)=O)cc1[N+](=O)[O-]" .
No

Each compound tested received a call. Report the one for C#CCOS(=O)OC1CCCCC1Oc1ccc(C(C)(C)C)cc1 (centres undefined) .
Yes
